The values you see were collected from patent US20230029835A1.

Form field: pIC50 (one value per entry).
ASSAY TARGET: T1, human TSLP recombinant protein (human, UniProt Q969D9 29-159, biotinylated in the blocking and cell-binding assays (sites not given))
T1 construct: also called biotinylated human TSLP protein
MEASUREMENT DESCRIPTION: competition ELISA, biotin-human TSLP to coated human TSLPR-Fc
When answering, recall that pIC50 equals minus log10 of the concentration in mol/L, and write that number alone.

Ab23 (antibody, V domains shown, Humanized; also called h39G5VHv2/h71G4VKv1; h39G5VHv2/h71G4VKv1 hIgG1) VH: QVQLVQSGAEVKKPGSSVKVSCKASGYSFISYWIHWVRQAPGQGLEWMGIIDPSDSDTSLNQKFQGRVTITADESTSTAYMELSSLRSEDTAVYYCARSLDGYYDYWGQGTLVTVSS VL: DIQMTQSPSSLSASVGDRVTITCRTSENIYSYLAWYQQKPGKAPKLLIYFAKTLTDGVPSRFSGSGSGTDFTLTISSLQPEDFATYYCQHHYGTPWTFGQGTKVEIK
8.75

# input Determine from records and report pIC50 for Ab10 (antibody, V domains shown, Humanized; also called h39G5VHv10/h39G5VKv1) VH: QVQLVQSGAEVKKPGSSVKVSCKASGYTFTDYWMHWVRQAPGQGLEWMGIIDPSDSDTSLNQKFQGRVTITADTSTSTAYMELSSLRSEDTAVYYCARSLDGYYDYWGQGTLVTVSS VL: DIQMTQSPSSLSASVGDRVTITCRASENIYSYLAWYQQKPGKAPKLLIYNARTLPEGVPSRFSGSGSGTDFTLTISSLQPEDFATYYCQHHYTTPWTFGQGTKVEIK
# output 8.87

# input Determine from records and report pIC50 for Ab3 (antibody, V domains shown, Humanized; also called h39G5VHv3/h39G5VKv1) VH: EVQLVQSGAEVKKPGESLRISCKASGYSFISYWIHWVRQMPGKGLEWMGIIDPSDSDTSLNQSFQGHVTLSVDKSSTTAYLQWSSLKASDTAMYYCARSLDGYYDYWGQGTLVTVSS VL: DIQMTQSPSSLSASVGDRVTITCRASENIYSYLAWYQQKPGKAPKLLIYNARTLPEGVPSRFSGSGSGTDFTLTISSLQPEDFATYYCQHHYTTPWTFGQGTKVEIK
# output 8.78
